This collection of values is drawn from ChEMBL document CHEMBL1137612.

Catalogue of Kd readings, one per entry.
- assay notes: Binding affinity to hairpin DNA
- Parameters: species or system Homo sapiens
Give just the number in µM; leave the unit off.

• NCCC(=O)NCc1cc2oc1CNC(=O)C1=CC=C(CNC(=O)C3=CC=C(CNC2=O)O3)O1 = 700

// switching to the query molecule
Requested read-out: Kd. Entry: NCc1cc2oc1CNC(=O)C1=CC=C(CNC(=O)C3=CC=C(CNC2=O)O3)O1
950

---

- Species: Homo sapiens
- assay notes: Stabilization effect on human telomeric DNA assessed as differential melting temperature by FRET assay
readout: ΔTm (°C)
Give just the number in °C; leave the unit off.

- NCCC(=O)NCc1cc2oc1CNC(=O)C1=CC=C(CNC(=O)C3=CC=C(CNC2=O)O3)O1: 10
- NCC1=C2CNC(=O)C3=CC=C(CNC(=O)c4cc(CN)c(o4)CNC(=O)C4=CC=C(CNC(=O)C(=C1)O2)O4)O3: 12
- NCCC(=O)NCC1=C2CNC(=O)C3=CC=C(CNC(=O)c4cc(CNC(=O)CCN)c(o4)CNC(=O)C4=CC=C(CNC(=O)C(=C1)O2)O4)O3: 17

Requested read-out: ΔTm. Entry: NCc1cc2oc1CNC(=O)C1=CC=C(CNC(=O)C3=CC=C(CNC2=O)O3)O1
9

---

- Organism: Homo sapiens
- assay notes: Stabilization effect on human telomeric DNA assessed as differential melting temperature by DSC assay
readout: ΔTm (°C)
Give just the number in °C; leave the unit off.

Requested read-out: ΔTm. Entry: NCCC(=O)NCC1=C2CNC(=O)C3=CC=C(CNC(=O)c4cc(CNC(=O)CCN)c(o4)CNC(=O)C4=CC=C(CNC(=O)C(=C1)O2)O4)O3
9.2

Requested read-out: ΔTm. Entry: NCCC(=O)NCc1cc2oc1CNC(=O)C1=CC=C(CNC(=O)C3=CC=C(CNC2=O)O3)O1
3

Requested read-out: ΔTm. Entry: NCC1=C2CNC(=O)C3=CC=C(CNC(=O)c4cc(CN)c(o4)CNC(=O)C4=CC=C(CNC(=O)C(=C1)O2)O4)O3
6.6

Requested read-out: ΔTm. Entry: NCc1cc2oc1CNC(=O)C1=CC=C(CNC(=O)C3=CC=C(CNC2=O)O3)O1
2

---

- assay notes: Binding affinity to human telomeric DNA
readout: pKd
// pKd here means minus log10 of the molar concentration (mol/L)

Worked cases, pKd given:
• NCCC(=O)NCc1cc2oc1CNC(=O)C1=CC=C(CNC(=O)C3=CC=C(CNC2=O)O3)O1 = 4.68
• NCCC(=O)NCC1=C2CNC(=O)C3=CC=C(CNC(=O)c4cc(CNC(=O)CCN)c(o4)CNC(=O)C4=CC=C(CNC(=O)C(=C1)O2)O4)O3 = 5.51
• NCc1cc2oc1CNC(=O)C1=CC=C(CNC(=O)C3=CC=C(CNC2=O)O3)O1 = 4.54

// switching to the query molecule
Requested read-out: pKd. Entry: NCC1=C2CNC(=O)C3=CC=C(CNC(=O)c4cc(CN)c(o4)CNC(=O)C4=CC=C(CNC(=O)C(=C1)O2)O4)O3
4.84

---

- assay notes: Cytotoxicity against […] cells by MTT assay
- Type: functional, cell-based
- applied conditions: Homo sapiens
readout: IC50 (µM)
Give just the number in µM; leave the unit off.

* NCCC(=O)NCC1=C2CNC(=O)C3=CC=C(CNC(=O)c4cc(CNC(=O)CCN)c(o4)CNC(=O)C4=CC=C(CNC(=O)C(=C1)O2)O4)O3 | 500

// switching to the query molecule
Requested read-out: IC50. Entry: NCC1=C2CNC(=O)C3=CC=C(CNC(=O)c4cc(CN)c(o4)CNC(=O)C4=CC=C(CNC(=O)C(=C1)O2)O4)O3
500
